procedureText: probe aXIP binding to arrayed compounds – biochemical, NeuroSMM set, 635/667 nm fluorescence, primary screen (AID 1119);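 also: probe is the protein aXip251-270 applied at 1 µg/mL to compound-printed slides; binding of probe to printed compounds measured as 667 nm fluorescence plus signal to noise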
conditionDescription: small-molecule microarray, higher = more signal, called active from +8 up or from −8 down
Quick rule for you: composite Z-score at 0.06 or higher means Criterion met, lower means Criterion not met.

compound	assignedLabel
O=C1C2C=CC(C(O)c3ccc([N+](=O)[O-])cc3)N(Nc3ccccc3F)C2C(=O)N1c1ccccc1 (stereo not given)	Criterion not met

Reported composite Z-score at or above 0.06? `CC(C)C(=C=CC[C@H](O)c1ccccc1OCCO)C[C@H](O)COCc1ccccc1` Criterion not met

Hi team, for CC=CC(O)C1C=CC2C(=O)NC(=O)C2N1Nc1ccc(Cl)cc1Cl (stereo not given) , is the recorded composite Z-score at or above 0.06? Criterion met

State whether the measured composite Z-score reaches 0.06, counting equality as reaching it, for CC(C)C[C@H]1NC(=O)C([C@@H](C)OCc2ccccc2)NC(=O)[C@@]23C(=O)N[C@@H](Cc4ccccc4)C2[C@H](C)[C@@]2(C)O[C@H]2C3/C=C/C/C=C\CNC1=O (stereo not given in full) Criterion not met

Is reported composite Z-score greater than or equal to 0.06 here: CC(C)(C)N1CC=CC23O[C@@H]4C=CCOC(=O)[C@@H]4[C@H]2C(=O)N(CCO)[C@@H]3C1=O (stereo not given in full) Criterion met

====

targetOrTestSystem: Follistatin (Homo sapiens) (UniProt P19883)
Sequence (P19883 whole entry, looked up): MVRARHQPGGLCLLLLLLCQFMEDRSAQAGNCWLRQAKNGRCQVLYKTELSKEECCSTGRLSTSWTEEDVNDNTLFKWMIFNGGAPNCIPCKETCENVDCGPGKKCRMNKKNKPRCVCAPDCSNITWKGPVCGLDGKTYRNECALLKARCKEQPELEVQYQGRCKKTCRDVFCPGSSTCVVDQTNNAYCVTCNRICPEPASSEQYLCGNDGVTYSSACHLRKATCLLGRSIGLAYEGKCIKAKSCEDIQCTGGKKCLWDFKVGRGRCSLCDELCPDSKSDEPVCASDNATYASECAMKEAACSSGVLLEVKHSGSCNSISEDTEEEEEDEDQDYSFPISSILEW
procedureText: FST protein binding to printed compounds – biochemical, small-molecule microarray, 635/667 nm fluorescence, primary screen (AID 1132)
conditionDescription: 635 nm fluorescence, higher = more signal
MET means recorded composite z-score is 0.9 or above; NOT MET means it is below 0.9.

molecule	assignedLabel
C=CC[C@@]12N=C(c3ccc(OCCCO)cc3)O[C@@H]1c1ccccc1N(CCC)C2=O	MET
Cc1ccc(N2C(=O)c3ccccc3[C@](C)(C(=O)NCCCN(C)C)[C@@H]2c2ccc(CO)cc2)nc1	NOT MET
O=C1C2C=CC(C(O)c3cccs3)N(Nc3ccc([N+](=O)[O-])cc3)C2C(=O)N1c1ccccc1 (stereo unspecified)	NOT MET
CC(C)NC(=O)[C@@H]1c2ccccc2C(=O)N(Cc2ccccc2C(F)(F)F)[C@H]1c1ccc(CO)cc1	NOT MET
O=C1[C@H]2C=C(I)[C@H](C[C@@H]2c2ccccc2)[C@@]12CO2	NOT MET
CN(C)CCCNC(=O)[C@@]1(Cc2ccccc2I)c2ccccc2C(=O)N(C2CCCCC2)[C@H]1c1ccc(CO)cc1	NOT MET
CC(C)C(O)C1C=CC2C(=O)NC(=O)C2N1Nc1ccccn1 (stereo unspecified)	NOT MET
CCCCCC1=C2CNC(Cc3ccccc3)(C(=O)OC)C=C2C(C)C1=O (stereo unspecified)	NOT MET
O=C1C2C=CC(C(O)c3ccc([N+](=O)[O-])cc3)N(Nc3ccccc3F)C2C(=O)N1c1ccccc1 (stereo unspecified)	NOT MET
C=CCN1C(=O)[C@@]2(O[C@@H](CCn3cc([C@H](O)c4ccccc4)nn3)[C@H]([Si](C)(C)c3ccc(OC)cc3)[C@H]2C)c2cc(N3C(=O)c4cccc5cccc3c45)ccc21	NOT MET

Would you say `COc1ccc(C(=O)Nc2cccc(CN3C(=O)[C@@]4(O[C@@H](CC(=O)N5CCC[C@H]5CO)[C@H]([Si](C)(C)c5ccc(OC)cc5)[C@H]4C)c4ccccc43)c2)cc1` shows composite z-score at minimum 0.9? MET

Say whether `CC1=C([C@H](O)CCc2ccccc2)[C@H](CO)n2c(=O)n(-c3ccccc3)c(=O)n2C1` shows composite z-score of 0.9 or more. NOT MET

Confirm if composite z-score reported for the molecule `COc1ccc([Si](C)(C)[C@@H]2[C@@H](CC(=O)N3Cc4ccccc4C[C@H]3CO)O[C@]3(C(=O)N(Cc4ccc(N5CCOC5=O)cc4)c4ccccc43)[C@H]2C)cc1` is 0.9 or above. MET

Identify whether the reported composite z-score of the following molecule is 0.9 or greater: `CCOC(=O)C[C@H]1[C@H](OC(=O)Cc2ccc3c(c2)OCO3)[C@@H](NC(=O)c2ccc3ccccc3n2)c2cc(OCCCO)ccc2N1C(=O)Cc1ccc(OC)cc1` NOT MET

Please indicate if the recorded composite z-score for `C=CC[C@@]1(C(=O)N(C)C)N=C(c2ccc(OCCCO)cc2)O[C@@H]1c1ccccc1CN=[N+]=[N-]` meets or exceeds 0.9. MET

Form field: composite z-score at least 0.9? Entry: `C[C@@H]1ON(c2ccccc2)[C@H](c2ccccc2)[C@H]1C(=O)O` MET
